// data source = the supplement of paper PMC8612539

Tested on: Histophilus somni
Protocol text: minimum inhibitory concentration (MIC)
Test settings: isolate (source animal id): 117
Quantity kind: minimum inhibitory concentration (µg/mL)

[[record]]
compound = "C=C[C@]1(C)C[C@@H](OC(=O)CSCCN(CC)CC)[C@]2(C)[C@H](C)CC[C@]3(CCC(=O)[C@H]32)[C@@H](C)[C@@H]1O [Tiamulin]"
result_units = "µg/mL"
modifier = "="
val = 1

[[record]]
compound = "CCCN1C[C@H](C)[C@@H](O)[C@](C)(O)[C@@H](CC)OC(=O)[C@H](C)[C@@H](O[C@H]2C[C@@](C)(OC)[C@@H](O)[C@H](C)O2)[C@H](C)[C@@H](O[C@@H]2O[C@H](C)C[C@H](N(C)C)[C@H]2O)[C@](C)(O)C[C@H]1C [Gamithromycin]"
result_units = "µg/mL"
modifier = "≤"
val = 1

[[record]]
compound = "CC[C@H]1OC(=O)C[C@@H](O)[C@H](C)[C@@H](O[C@@H]2O[C@H](C)[C@@H](O[C@H]3C[C@@](C)(O)[C@@H](O)[C@H](C)O3)[C@H](N(C)C)[C@H]2O)[C@@H](CC=O)C[C@@H](C)C(=O)/C=C/C(C)=C/[C@@H]1CO[C@@H]1O[C@H](C)[C@@H](O)[C@@H](OC)[C@H]1OC [Tylosin]"
result_units = "µg/mL"
modifier = "="
val = 4

[[record]]
compound = "CC1(C)S[C@@H]2[C@H](NC(=O)[C@H](N)c3ccccc3)C(=O)N2[C@H]1C(=O)O [Ampicillin]"
result_units = "µg/mL"
modifier = "≤"
val = 0.25

[[record]]
compound = "NC[C@@H]1O[C@H](O[C@H]2[C@@H](O)[C@H](O[C@@H]3[C@@H](O)[C@H](N)C[C@H](N)[C@H]3O[C@H]3O[C@H](CN)[C@@H](O)[C@H](O)[C@H]3N)O[C@@H]2CO)[C@H](N)[C@@H](O)[C@@H]1O [Neomycin]"
result_units = "µg/mL"
modifier = "="
val = 16


###

System: Mannheimia haemolytica
Protocol text: minimum inhibitory concentration (MIC)
Test settings: isolate (source animal id): 112
The molecules listed here are annotated with their minimum inhibitory concentration.
Quantity kind: minimum inhibitory concentration

[[record]]
smi = "C=C[C@]1(C)C[C@@H](OC(=O)CSCCN(CC)CC)[C@]2(C)[C@H](C)CC[C@]3(CCC(=O)[C@H]32)[C@@H](C)[C@@H]1O"
quantity_kind = "minimum inhibitory concentration"
val = "16 µg/mL"

[[record]]
smi = "CO/N=C(\\C(=O)N[C@@H]1C(=O)N2C(C(=O)O)=C(CSC(=O)c3ccco3)CS[C@H]12)c1csc(N)n1"
quantity_kind = "minimum inhibitory concentration"
val = "≤ 0.25 µg/mL"

[[record]]
smi = "CC[C@H]1OC(=O)C[C@@H](O)[C@H](C)[C@@H](O[C@@H]2O[C@H](C)[C@@H](O[C@H]3C[C@@](C)(O)[C@@H](O)[C@H](C)O3)[C@H](N(C)C)[C@H]2O)[C@@H](CC=O)C[C@@H](C)C(=O)/C=C/C(C)=C/[C@@H]1CO[C@@H]1O[C@H](C)[C@@H](O)[C@@H](OC)[C@H]1OC"
quantity_kind = "minimum inhibitory concentration"
val = "> 32 µg/mL"


###

The compounds listed here are annotated with their minimum inhibitory concentration.
System: Mannheimia haemolytica
Protocol text: minimum inhibitory concentration (MIC)
Test settings: isolate (source animal id): 56
Quantity kind: minimum inhibitory concentration

[[record]]
smi = "CC[C@H]1OC(=O)C[C@@H](O)[C@H](C)[C@@H](O[C@@H]2O[C@H](C)[C@@H](O[C@H]3C[C@@](C)(O)[C@@H](O)[C@H](C)O3)[C@H](N(C)C)[C@H]2O)[C@@H](CC=O)C[C@@H](C)C(=O)/C=C/C(C)=C/[C@@H]1CO[C@@H]1O[C@H](C)[C@@H](O)[C@@H](OC)[C@H]1OC"
study_system = "Mannheimia haemolytica"
quantity_kind = "minimum inhibitory concentration"
val = "> 32 µg/mL"

[[record]]
smi = "CC[C@H]1OC(=O)C[C@@H](O)[C@H](C)[C@@H](O[C@@H]2O[C@H](C)[C@@H](O)[C@H](N(C)C)[C@H]2O)[C@@H](CCN2CCCCC2)C[C@@H](C)C(=O)/C=C/C(C)=C/[C@@H]1CN1CCCCC1"
study_system = "Mannheimia haemolytica"
quantity_kind = "minimum inhibitory concentration"
val = "≤ 1 µg/mL"

[[record]]
smi = "CCN1CCN(c2cc3c(cc2F)c(=O)c(C(=O)O)cn3C2CC2)CC1"
study_system = "Mannheimia haemolytica"
quantity_kind = "minimum inhibitory concentration"
val = "0.5 µg/mL"

[[record]]
smi = "CN[C@@H]1[C@H](O)[C@H](NC)[C@H]2O[C@@]3(O)C(=O)C[C@@H](C)O[C@H]3O[C@@H]2[C@H]1O"
study_system = "Mannheimia haemolytica"
quantity_kind = "minimum inhibitory concentration"
val = "32 µg/mL"

[[record]]
smi = "CCCNC[C@]1(O)[C@H](C)O[C@@H](O[C@H]2[C@H](C)[C@@H](O[C@@H]3O[C@H](C)C[C@H](N(C)C)[C@H]3O)[C@](C)(O)C[C@@H](C)CN[C@H](C)[C@@H](O)[C@](C)(O)[C@@H](CC)OC(=O)[C@@H]2C)C[C@@]1(C)OC"
study_system = "Mannheimia haemolytica"
quantity_kind = "minimum inhibitory concentration"
val = "≤ 8 µg/mL"


###

Tested on: Enterococcus spp.
Protocol text: minimum inhibitory concentration (MIC)
Test settings: isolate (source animal id): 183
Quantity kind: minimum inhibitory concentration

[[record]]
molecule = "CCCN1C[C@H](C)[C@@H](O)[C@](C)(O)[C@@H](CC)OC(=O)[C@H](C)[C@@H](O[C@H]2C[C@@](C)(OC)[C@@H](O)[C@H](C)O2)[C@H](C)[C@@H](O[C@@H]2O[C@H](C)C[C@H](N(C)C)[C@H]2O)[C@](C)(O)C[C@H]1C [Gamithromycin]"
study_system = "Enterococcus spp."
quantity_kind = "minimum inhibitory concentration"
val = "2 mg/L"

[[record]]
molecule = "CCCNC[C@]1(O)[C@H](C)O[C@@H](O[C@H]2[C@H](C)[C@@H](O[C@@H]3O[C@H](C)C[C@H](N(C)C)[C@H]3O)[C@](C)(O)C[C@@H](C)CN[C@H](C)[C@@H](O)[C@](C)(O)[C@@H](CC)OC(=O)[C@@H]2C)C[C@@]1(C)OC [Tulathromycin]"
study_system = "Enterococcus spp."
quantity_kind = "minimum inhibitory concentration"
val = "≤ 8 mg/L"

[[record]]
molecule = "COc1cc(Cc2cnc(N)nc2N)cc(OC)c1OC.Cc1cc(NS(=O)(=O)c2ccc(N)cc2)no1 [trimethoprim-sulfamethoxazole]"
study_system = "Enterococcus spp."
quantity_kind = "minimum inhibitory concentration"
val = "≤ 2 mg/L"

[[record]]
molecule = "CNC(C)C1CCC(N)C(OC2C(N)CC(N)C(OC3OCC(C)(O)C(NC)C3O)C2O)O1 (stereo not given) [Gentamicin]"
study_system = "Enterococcus spp."
quantity_kind = "minimum inhibitory concentration"
val = "8 mg/L"

[[record]]
molecule = "C=C[C@]1(C)C[C@@H](OC(=O)CSCCN(CC)CC)[C@]2(C)[C@H](C)CC[C@]3(CCC(=O)[C@H]32)[C@@H](C)[C@@H]1O [Tiamulin]"
study_system = "Enterococcus spp."
quantity_kind = "minimum inhibitory concentration"
val = "> 32 mg/L"


###

Tested on: Histophilus somni
Protocol text: minimum inhibitory concentration (MIC)
Test settings: isolate (source animal id): 216
Quantity kind: minimum inhibitory concentration (µg/mL)

[[record]]
compound = "C=C[C@]1(C)C[C@@H](OC(=O)CSCCN(CC)CC)[C@]2(C)[C@H](C)CC[C@]3(CCC(=O)[C@H]32)[C@@H](C)[C@@H]1O [Tiamulin]"
quantity_kind = "minimum inhibitory concentration"
modifier = "="
val = 2

[[record]]
compound = "COc1cc(NS(=O)(=O)c2ccc(N)cc2)nc(OC)n1 [sulfadimethoxine]"
quantity_kind = "minimum inhibitory concentration"
modifier = ">"
val = 256

[[record]]
compound = "CO/N=C(\\C(=O)N[C@@H]1C(=O)N2C(C(=O)O)=C(CSC(=O)c3ccco3)CS[C@H]12)c1csc(N)n1 [Ceftiofur]"
quantity_kind = "minimum inhibitory concentration"
modifier = "≤"
val = 0.25

[[record]]
compound = "CNC(C)C1CCC(N)C(OC2C(N)CC(N)C(OC3OCC(C)(O)C(NC)C3O)C2O)O1 (centres undefined) [Gentamicin]"
quantity_kind = "minimum inhibitory concentration"
modifier = "="
val = 8


###

The molecules listed here are annotated with their minimum inhibitory concentration.
Test system: Enterococcus spp.
Protocol text: minimum inhibitory concentration (MIC)
Test settings: isolate (source animal id): 331
Quantity kind: minimum inhibitory concentration (µg/mL)

[[record]]
smi = "CN[C@@H]1[C@H](O)[C@H](NC)[C@H]2O[C@@]3(O)C(=O)C[C@@H](C)O[C@H]3O[C@@H]2[C@H]1O"
modifier = "="
val = 64

[[record]]
smi = "CC[C@H]1OC(=O)C[C@@H](O)[C@H](C)[C@@H](O[C@@H]2O[C@H](C)[C@@H](O)[C@H](N(C)C)[C@H]2O)[C@@H](CCN2C[C@H](C)C[C@H](C)C2)C[C@@H](C)C(=O)/C=C/C(C)=C/[C@@H]1CO[C@@H]1O[C@H](C)[C@@H](O)[C@@H](OC)[C@H]1OC"
modifier = "="
val = 8

[[record]]
smi = "CN(C)[C@@H]1C(O)=C(C(N)=O)C(=O)[C@@]2(O)C(O)=C3C(=O)c4c(O)cccc4[C@@](C)(O)[C@H]3C[C@@H]12"
modifier = "≤"
val = 0.5

[[record]]
smi = "CC[C@H]1OC(=O)C[C@@H](O)[C@H](C)[C@@H](O[C@@H]2O[C@H](C)[C@@H](O[C@H]3C[C@@](C)(O)[C@@H](O)[C@H](C)O3)[C@H](N(C)C)[C@H]2O)[C@@H](CC=O)C[C@@H](C)C(=O)/C=C/C(C)=C/[C@@H]1CO[C@@H]1O[C@H](C)[C@@H](O)[C@@H](OC)[C@H]1OC"
modifier = "="
val = 4

[[record]]
smi = "CO/N=C(\\C(=O)N[C@@H]1C(=O)N2C(C(=O)O)=C(CSC(=O)c3ccco3)CS[C@H]12)c1csc(N)n1"
modifier = "="
val = 2

[[record]]
smi = "CC1(C)S[C@@H]2[C@H](NC(=O)[C@H](N)c3ccccc3)C(=O)N2[C@H]1C(=O)O"
modifier = "≤"
val = 0.25

[[record]]
smi = "CN1C[C@@H]2C[C@H]1CN2c1cc2c(cc1F)c(=O)c(C(=O)O)cn2C1CC1"
modifier = "="
val = 1

[[record]]
smi = "CS(=O)(=O)c1ccc([C@@H](O)[C@@H](CF)NC(=O)C(Cl)Cl)cc1"
modifier = "="
val = 2

